Assay: Pharmacokinetics after oral gavage
Format: in vivo, rat
Settings: Sprague-Dawley, rat, plasma, po, 10 mg/kg, 10 mg/kg oral gavage, Average
Description: In three of the rats tested in Example 56, indicated as R1, […], also the pharmacokinetic profile of compound 8 (R,R) was evaluated. The results are summarised in Tables III to IV and in FIGS. 1-4. FIGS. 1 and 2 show the plasma concentrations, expressed in ng/ml, of compound 8 (R,R) over time after oral administration for each of the three subjects tested (FIG. 1) and as an average (FIG. 2). […] In tables IV and VI, LLOQ means lower limit of quantification.
measured.attribute: AUC(0-t) (ng·h/mL)

- compound: "COc1ccccc1CN(C(=O)CC(C)C)[C@@H](C(=O)NC[C@H]1CCCO1)c1ccc(C)cc1 [Compound 8 (R,R)]"
  unit.descriptor: "ng·h/mL"
  data.value: 5.63

###

biological target: BKB1 receptors (Homo sapiens, UniProt P46663); construct: Human (IMR-90) lung fibroblast cells expressing native BKB1 receptors; endogenous in cells; assay: Calcium Mobilization Assay (FLIPR), IMR-90 cells, BKB1; conditions: IL-1 induced IMR-90 cells, agonist desArg10-kallidin (DAKD)
Sequence (P46663 whole entry): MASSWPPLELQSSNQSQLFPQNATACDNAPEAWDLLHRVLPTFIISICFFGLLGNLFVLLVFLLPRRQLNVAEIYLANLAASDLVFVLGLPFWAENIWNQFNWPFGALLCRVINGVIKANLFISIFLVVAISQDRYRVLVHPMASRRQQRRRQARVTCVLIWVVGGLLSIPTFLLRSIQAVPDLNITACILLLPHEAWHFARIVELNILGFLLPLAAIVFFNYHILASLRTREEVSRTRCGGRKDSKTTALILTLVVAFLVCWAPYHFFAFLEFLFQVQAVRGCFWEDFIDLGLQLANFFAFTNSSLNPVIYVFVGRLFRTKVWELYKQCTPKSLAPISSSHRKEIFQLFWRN
pIC50: −log10 of the molar value.
pIC50 reference
measured.attribute: pIC50

- compound: "COc1ccccc1CN(C(=O)CCC(C)=O)C(C(=O)NCC1CCCO1)c1ccc(C)cc1 (stereo not shown)"
  data.value: 5.92
- compound: "COc1ccccc1CN(C(=O)C1CCCC1)C(C(=O)NCC1CCCO1)c1ccc(C)cc1 (stereo not shown)"
  data.value: 6.52
- compound: "COc1ccccc1CN(C(=O)c1ccccc1[N+](=O)[O-])C(C(=O)NCC1CCCO1)c1ccc(C)cc1 (stereo not shown)"
  data.value: 4.84
- compound: "Cc1ccc(C(C(=O)NCC2CCCO2)N(CC2CCCCC2)C(=O)Cc2ccccc2)cc1 (stereo not shown)"
  data.value: 5.21
- compound: "Cc1ccc(C(C(=O)NCC2CCCO2)N(CC2CCCCC2)C(=O)CC2CCCC2)cc1 (stereo not shown)"
  data.value: 4.82
- compound: "COc1ccccc1CN(C(=O)Cc1cccc(F)c1F)[C@@H](C(=O)NC[C@H]1CCCO1)c1ccc(C)cc1 [Compound 3 (R,R)]"
  data.value: 6.27
- compound: "COc1ccccc1CN(C(=O)c1ccc([N+](=O)[O-])cc1)C(C(=O)NCC1CCCO1)c1ccc(C)cc1 (stereo not shown)"
  data.value: 5.52
- compound: "Cc1ccc(C(C(=O)NCC2CCCO2)N(CC2CCCC2)C(=O)CC2CCCC2)cc1 (stereo not shown)"
  data.value: 4.89
- compound: "COc1ccccc1CN(C(=O)Cn1ccnn1)[C@@H](C(=O)NC[C@H]1CCCO1)c1ccc(C)cc1 [Compound 30 (R,R)]"
  data.value: 7.96
- compound: "COc1ccccc1CC(=O)N(Cc1ccccc1OC)C(C(=O)NCC1CCCO1)c1ccc(C)cc1 (stereo not shown)"
  data.value: 6.52
- compound: "COc1ccccc1CN(C(=O)Cn1nnc2ccccc21)C(C(=O)NCC1CCCO1)c1ccc(C)cc1 (stereo not shown)"
  data.value: 5.72
- compound: "COc1ccccc1CN(C(=O)Cc1cccc(C)c1)C(C(=O)NCC1CCCO1)c1ccc(C)cc1 (stereo not shown)"
  data.value: 6.52
- compound: "COc1ccccc1CN(C(=O)c1coc(C)n1)[C@@H](C(=O)NC[C@H]1CCCO1)c1ccc(C)cc1 [Compound 2 (R,R)]"
  data.value: 7.20
- compound: "Cc1ccc(C(C(=O)NCC2CCCO2)N(CC2CCCCC2)C(=O)Cc2cccc(C)c2)cc1 (stereo not shown)"
  data.value: 5.29
- compound: "COc1ccccc1CN(C(=O)CN1C(=O)c2ccccc2C1=O)C(C(=O)NCC1CCCO1)c1ccc(C)cc1 (stereo not shown)"
  data.value: 6.52
- compound: "Cc1ccc(C(C(=O)NCC2CCCO2)N(CC2CCCC2)C(=O)Cc2ccccc2)cc1 (stereo not shown)"
  data.value: 5.01

###

assay: Pharmacokinetics after oral gavage; type: in vivo, rat; conditions: Sprague-Dawley, rat, plasma, po, 10 mg/kg, 10 mg/kg oral gavage, Rat 2
measured.attribute: AUC(0-t) (ng·h/mL)

- compound: "COc1ccccc1CN(C(=O)CC(C)C)[C@@H](C(=O)NC[C@H]1CCCO1)c1ccc(C)cc1 [Compound 8 (R,R)]"
  measured.attribute: "AUC(0-t)"
  data.value: 8.62

###

assay: Pharmacokinetics after oral gavage; assay type: in vivo, rat; conditions: Sprague-Dawley, rat, plasma, po, 10 mg/kg, oral administration, 5 min, Rat3; read-out: plasma level

- molecule: "COc1ccccc1CN(C(=O)CC(C)C)[C@@H](C(=O)NC[C@H]1CCCO1)c1ccc(C)cc1 [Compound 8 (R,R)]"
  concentration at 5 min: "3.3 ng/mL"

###

target: BKB1 receptors (Homo sapiens, UniProt P46663); construct: Human (IMR-90) lung fibroblast cells expressing native BKB1 receptors; endogenous in cells; assay: Calcium Mobilization Assay (FLIPR), IMR-90 cells, BKB1; conditions: IL-1 induced IMR-90 cells, agonist desArg10-kallidin (DAKD)
pIC50: −log10 of the molar value.
pIC50 reference

- compound: "Cc1ccc(C(C(=O)NCC2CCCO2)N(Cc2cccc(C)c2)C(=O)C2CC2C)cc1 (stereo not shown)"
  pIC50: 4.90
- compound: "COc1ccccc1CN(C(=O)Cc1ccc(N(C)C)cc1)C(C(=O)NCC1CCCO1)c1ccc(C)cc1 (stereo not shown)"
  pIC50: 5.68
- compound: "Cc1ccc(C(C(=O)NCC2CCCO2)N(CC2CCCC2)C(=O)Cc2ccccc2C)cc1 (stereo not shown)"
  pIC50: 4.90
- compound: "Cc1ccc(C(C(=O)NCC2CCCO2)N(CC2CCCC2)C(=O)Cc2cccc(C)c2)cc1 (stereo not shown)"
  pIC50: 4.88
- compound: "COc1ccccc1CN(C(=O)Cc1c(F)cccc1F)[C@@H](C(=O)NC[C@H]1CCCO1)c1ccc(C)cc1 [Compound 6 (R,R)]"
  pIC50: 6.34
- compound: "COc1ccccc1CN(C(=O)Cn1nnc2ccccc21)C(C(=O)NCC1CCCO1)c1ccc(C(F)(F)F)cc1 (stereo not shown)"
  pIC50: 6.53
- compound: "Cc1ccc(C(C(=O)NCC2CCCO2)N(Cc2cccn2C)C(=O)CN(C)C)cc1 (stereo not shown)"
  pIC50: 5.02
- compound: "COc1ccccc1CN(C(=O)c1ccc(F)cc1)C(C(=O)NCC1CCCO1)c1ccc(C)cc1 (stereo not shown)"
  pIC50: 5.06
- compound: "COc1ccccc1CN(C(=O)C1CC1)C(C(=O)NCC1CCCO1)c1ccc(C)cc1 (stereo not shown)"
  pIC50: 4.82
- compound: "COc1ccccc1CN(C(=O)CC(C)C)C(C(=O)NCC1CCCO1)c1ccc(C2CC2)cc1 (stereo not shown)"
  pIC50: 7.20
- compound: "COc1ccccc1CN(C(=O)CC(C)C)C(C(=O)NCC1CCCO1)c1ccc(C(F)(F)F)cc1 (stereo not shown)"
  pIC50: 6.28
- compound: "COc1ccccc1CN(C(=O)c1ccco1)[C@@H](C(=O)NC[C@H]1CCCO1)c1ccc(C)cc1 [Compound 4 (R,R)]"
  pIC50: 6.45
- compound: "Cc1ccc(C(C(=O)NCC2CCCO2)N(CC2CCCCC2)C(=O)Cc2ccccc2C)cc1 (stereo not shown)"
  pIC50: 5.77
- compound: "COc1ccccc1CN(C(=O)Cc1ccccc1C)C(C(=O)NCC1CCCO1)c1ccc(C)cc1 (stereo not shown)"
  pIC50: 6.52
- compound: "Cc1ccc(C(C(=O)NCC2CCCO2)N(CC(C)C)C(=O)Cc2c[nH]cn2)cc1 (stereo not shown)"
  pIC50: 4.83
- compound: "COc1ccccc1CN(C(=O)C1CCC1)C(C(=O)NCC1CCCO1)c1ccc(C)cc1 (stereo not shown)"
  pIC50: 4.80

###

assay: Pharmacokinetics after IV administration, brain penetration assessment; type: in vivo, rat; settings: Sprague-Dawley, rat, plasma, iv, 7.5 mg/kg, Time 60, R2, read-out: Plasma level

- molecule: "COc1ccccc1CN(C(=O)CC(C)C)[C@@H](C(=O)NC[C@H]1CCCO1)c1ccc(C)cc1 [Compound 8 (R,R)]"
  concentration at 60 min: "157 ng/mL"

###

test: Pharmacokinetics after oral gavage; format: in vivo, rat; conditions: Sprague-Dawley, rat, plasma, po, 10 mg/kg, 10 mg/kg oral gavage, Rat 1

- compound: "COc1ccccc1CN(C(=O)CC(C)C)[C@@H](C(=O)NC[C@H]1CCCO1)c1ccc(C)cc1 [Compound 8 (R,R)]"
  unit.descriptor: "ng·h/mL"
  AUC(0-t): 5.67

###

Assay: Pharmacokinetics after oral gavage
Assay type: in vivo, rat
Conditions: Sprague-Dawley, rat, plasma, po, 10 mg/kg, oral administration, 60 min, Average; read-out: plasma level
Procedure: In three of the rats tested in Example 56, indicated as R1, […], also the pharmacokinetic profile of compound 8 (R,R) was evaluated. The results are summarised in Tables III to IV and in FIGS. 1-4. FIGS. 1 and 2 show the plasma concentrations, expressed in ng/ml, of compound 8 (R,R) over time after oral administration for each of the three subjects tested (FIG. 1) and as an average (FIG. 2). […] In tables IV and VI, LLOQ means lower limit of quantification.

- compound: "COc1ccccc1CN(C(=O)CC(C)C)[C@@H](C(=O)NC[C@H]1CCCO1)c1ccc(C)cc1 [Compound 8 (R,R)]"
  unit.descriptor: "ng/mL"
  concentration at 60 min: 1.4
